assay: inhibitors of Clostridioides difficile proliferation – 4-point retest, confirmation (AID 1224921); details: Clostridioides difficile clinical isolate growth, OD600, 24 h, active compounds read low; at 30 µM unless noted;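 note: plate controls were DMSO wells for no effect and levofloxacin 16 µg/mL wells for full effect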
Hit rate of the full screen: of about 1,400 compounds, about 350 (25%) were called active. Not shown: some 2% with an inconclusive outcome. These entries were drawn from the full list. Measured potencies and affinities stand elsewhere.
max activity for assorted molecules

In the examples that follow, each entry is paired with its recorded max activity.
> print(dat)
                           structure.string  quantity.measured                  measured.value
1  C[C@@H]1CN([C@H](C)CO)S(=O)(=O)c2ccc(C#CCC3CCCC3)cc2O[C@@H]1CN(C)C(=O)c1ccccn1       max activity      46.2% [at 8 µM] (inactive)
2  COc1ccc([Si](C)(C)[C@H]2[C@H](CCO)O[C@@]3(C(=O)N(C)c4ccccc43)[C@@H]2C)cc1       max activity      12.6% [at 8 µM] (inactive)
3  COCC(=O)Nc1ccc2c(c1)OC[C@@H](C)N(Cc1cncnc1)C[C@H](C)[C@@H](OC)CN(C)C2=O       max activity  -8.05% [at 1.95 µM] (inactive)
4  C[C@H](CO)N1C[C@H](C)[C@H](CN(C)C(=O)Nc2ccc(C(F)(F)F)cc2)OCCCC[C@H](C)Oc2ccc(NS(=O)(=O)c3ccc(Cl)cc3)cc2C1=O       max activity                14.5% (inactive)

Please turn your attention to the following entry.
Which value of max activity has been reported for "C[C@@H]1CN([C@H](C)CO)C(=O)c2cc(NC(=O)Nc3cccc4ccccc34)ccc2O[C@@H](C)CCCCO[C@H]1CN(C)C(=O)c1ccccc1" in the records?
24.4% (inactive)
